- ASSAY PROCEDURE: GHB toxicokinetic study, i.v. bolus, plasma and urine up to 8 h, noncompartmental analysis
- Assay type: in vivo, Sprague Dawley rats
- SETUP CONDITIONS: both sexes, Sprague Dawley, rat, plasma, iv, 1500 mg/kg, 1500 mg/kg GHB iv; animal groups other than testosterone-treated OVX rats; read-out: Metabolic clearance, other animal groups
ASSAY METRIC: clearance

[Q] Name the recorded clearance of the molecule listed here: O=C(O)CCCO [GHB, Γ-hydroxybutyric acid]
[A] < 2.2 mL/min/kg

###

- ASSAY PROCEDURE: GHB toxicokinetic study, i.v. bolus, plasma and urine up to 8 h, noncompartmental analysis
- Format: in vivo, Sprague Dawley rats
- SETUP CONDITIONS: female, Sprague-Dawley, rat, plasma and urine, iv, 1500 mg/kg, 1500 mg/kg GHB + 1mg/kg AR-C 155858 iv; OVX testosterone rats; read-out: CLm (metabolic clearance)
ASSAY METRIC: clearance (mL/min/kg)
Please reply with the bare figure in mL/min/kg and do not write the unit itself.

[Q] Consider the compound O=C(O)CCCO [GHB, Γ-hydroxybutyric acid] and give its recorded clearance.
[A] 2.4
